Ref: patent US4492757A

- System: D-threonine-aldolase
- testDescription: Agents inhibiting, activating or stabilizing the activity of the novel enzyme
- Assay type: biochemical
endpoint: effect of the agent on the activity of the novel enzyme

Completed entries (count: 10):
> print(dat)
                                    compound                assayvalue
 1                                    [Zn+2]                 inhibited
 2                                    [Pd+2]                 inhibited
 3                                    [Mg+2]  activated and stabilized
 4                                    [Cu+2]                 inhibited
 5                                    [Co+2]  activated and stabilized
 6                        NO [hydroxylamine]                 inhibited
 7  O=S([O-])O.[Na+] [sodium hydrogen sulfite]  activated and stabilized
 8  O=C(O)c1cc[c]([Hg][Cl])cc1 [p-chloromercuribenzoate]                 inhibited
 9                                      OCCS  activated and stabilized
10                                    [Fe+2]  activated and stabilized

Memo: [Ag+] , reported effect of the agent on the activity of the novel enzyme: inhibited

Memo: [Mn+2] , reported effect of the agent on the activity of the novel enzyme: activated and stabilized

Memo: O[C@H](CS)[C@H](O)CS (racemic) , reported effect of the agent on the activity of the novel enzyme: activated and stabilized

Memo: [Hg+2] , reported effect of the agent on the activity of the novel enzyme: inhibited

Memo: O=S([O-])[O-].[Na+].[Na+] [sodium sulfite] , reported effect of the agent on the activity of the novel enzyme: activated and stabilized
